Data origin, for the record: the supplement of paper PMC10567573

B1: ZNF263 (parent)
chain: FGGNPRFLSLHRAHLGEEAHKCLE

# Variants of: B1
# EXPERIMENT: protein stability index of a GFP-peptide fusion (GPS, HEK-293T) (PSI 1-6); higher = more stable;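 also: lentivirally expressed fusions sorted by FACS into six bins by GFP to DsRed ratio, PSI derived from sequencing read proportions per bin multiplied by bin number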
# CONDITION PARAMETERS: c terminus: a fixed tail appended
Response key: Criterion met means protein stability index >= 2; Criterion not met means protein stability index < 2.

The examples below pair each entry with its known result.
FGGNPRFLSLHRAHLGEDAHKCLE [E18D] : Criterion not met
FGGNPRFLSLHRRHLGEEAHKCLE [A13R] : Criterion met
FGGNPRFLSLHRAHLGEEAHKDLE [C22D] : Criterion met
FGGNPRFLSLHRAHPGEEAHKCLE [L15P] : Criterion not met
FGGNPRFLSLHRAHLGEEAHGCLE [K21G] : Criterion not met
FGGNPRFLSLHRAHLGEEAHYCLE [K21Y] : Criterion not met
FDGNPRFLSLHRAHLGEEAHKCLE [G2D] : Criterion met
FGGNQRFLSLHRAHLGEEAHKCLE [P5Q] : Criterion met

Is it the case that FGGNPRFLSLHRAHLGEEAHKCLY [E24Y] has protein stability index reaching or exceeding 2?
Criterion not met

Is it the case that FGGNPRFLSLHRAHLGEEAMKCLE [H20M] has protein stability index reaching or exceeding 2?
Criterion met

Is it the case that FGGNPRFLSLHRAHLGEEAHKCKE [L23K] has protein stability index reaching or exceeding 2?
Criterion not met

Is it the case that FGGNPRSLSLHRAHLGEEAHKCLE [F7S] has protein stability index reaching or exceeding 2?
Criterion met

Is it the case that FGGNPDFLSLHRAHLGEEAHKCLE [R6D] has protein stability index reaching or exceeding 2?
Criterion not met
